Target: T1, human RANKL protein (human, UniProt O14788 140-317, limits assumed)
T1 sequence (looked up): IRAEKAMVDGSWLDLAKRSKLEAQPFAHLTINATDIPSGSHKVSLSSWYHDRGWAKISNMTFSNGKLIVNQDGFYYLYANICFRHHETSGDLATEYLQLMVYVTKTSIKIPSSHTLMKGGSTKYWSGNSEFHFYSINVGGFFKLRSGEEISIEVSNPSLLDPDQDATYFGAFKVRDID
Experiment: competition ELISA: RANKL (0.5 ug/ml) pre-incubated with the antibody, then binding to coated human RANK (8 ug/ml) detected; blocked partner RANK
Recorded endpoint: IC50 (µg/mL)
// note: answer is a bare numeric in µg/mL

As a guide, the following entries are already answered.
clone 37 rabbit anti-RANKL antibody (antibody, V domains shown) VH: QSVEESGGRLVTPGTPLTLTCTVSGFSLSNDVMSWVRQAPGKGLEWIGYIWSGGSPYYANWAKGRFTISKSSSTTVDLKITSPTTEDTAAYFCARGFGSSGLNIWGPGTLVTVSL VL: DMTQTPASVEVAVGGTVTIKCQASQSIGSNLAWYQQKPGQSPKLLIYSASILASGVPSRFKGSGSGTQFTLTISGVQCDDAATYYCQQGYSVGNIDNAFGGGTEVVVK
0.0436
clone 91 rabbit anti-RANKL antibody (antibody, V domains shown) VH: QSLEESGGRLVKPDETLTLTCTVSGSSLYNYEINWVRQAPGKGLEWIGYIDVGSGTWYASWAKGRFTISKTSTTVDLKITSPTTEDTATYFCTRKYNPMDLWGPGTLVTVSS VL: DMTQTPASVEVAVGGTVTIKCQASQNIGSNLAWYQQKPGQPPKLLIYSTSTVASGVPSRFKGSGFGTQFTLTISGVQCDDAATYYCQQGYSAGNVNNPFGGGTEVVVK
0.0645

Shifting focus to the binder that follows.
Please look up its IC50: clone 147 rabbit anti-RANKL antibody (antibody, V domains shown) VH: QSVEESGGRLVTPGTPQTLTCTVSGFSLSTDVVSWVRQAPGKGLEWIGYTWNGGATYYASWAKGRFTFSKTSTTVDLKITSPTTEDTATYFCARGYNGMDPWGPGTLVTVSS VL: DMTQTPASVEVAVGGTVTIKCQASQNIGSNLAWYQQKPGQPPKLLISKASTLASGVPSRFKGSGSGTEFTLAISDLECADAATYYCQQGYTTKNVVNPFGGGTEVVVK
0.0706

// provenance: patent US20160032001A1
